System: genotype A, "Long" strain RSV
Protocol Description: RSV-A assay (CPE protection in Hep-2 cells, ATPlite readout)
Assay type: cell-based, Human respiratory syncytial virus (HRSV)
Run Parameters: RSV-A Long strain, MOI 0.1, CPE protection, read-out: Human RSV-A (“Long”) EC50
Excerpt: Hep-2 cells, (originally derived from tumors grown in irradiated-cortisonised weanling rats that had been injected with epidermoid carcinoma tissue from the larynx of a person, but later found to be indistinguishable from HeLa cells by PCR DNA analysis), were used for the culturing of genotype A, “Long” strain RSV. […] Viral stock titers were quantified by tissue culture infectious dose 50% (TCID50) using 8,000 cells per well and 3-fold viral dilutions across a 96-well plate, cultured for 4 days. […]
Observed Property: EC50

INSERT INTO measurements (molecule, readout_value) VALUES
  ('COc1cc(C(=O)NC[C@@](O)(c2cc3c(c(-c4ccc(F)c(Br)c4F)n2)OC[C@]3(C)C(N)=O)C(F)(F)F)cc2cn(C3CC3)nc12', '< 200 nM'),
  ('COc1cc(C(=O)NC[C@@](O)(c2cc3c(c(-c4ccc5c(c4)OC(F)(F)C(F)(F)O5)n2)OC[C@]3(C)C(N)=O)C(F)(F)F)cc2cn(C3CC3)nc12', '< 200 nM'),
  ('COc1cc(C(=O)NCC(O)(c2cc3c(c(-c4ccc5ccn(C(F)F)c5c4)n2)OCC3(C)C(N)=O)C(F)(F)F)cc2cn(C3CC3)nc12 (stereo not drawn)', '< 200 nM');
